Molecular target: T1, His-tagged, full-length human PCSK9 (proprotein convertase subtilisin/kexin type 9) (human, UniProt A8T644 31-152; Q8NBP7 153-692)
T1 construct: also called His-PCSK9; C-terminal (His)8-tagged PCSK9
T1 sequence (A8T644 31-152, chain 1 of 2): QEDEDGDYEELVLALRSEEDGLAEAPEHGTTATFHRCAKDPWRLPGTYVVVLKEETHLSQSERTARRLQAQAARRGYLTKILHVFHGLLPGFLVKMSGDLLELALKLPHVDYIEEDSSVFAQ
T1 sequence (A8T644 other isoform, or with tags, fused parts or gaps, chain 2 of 2): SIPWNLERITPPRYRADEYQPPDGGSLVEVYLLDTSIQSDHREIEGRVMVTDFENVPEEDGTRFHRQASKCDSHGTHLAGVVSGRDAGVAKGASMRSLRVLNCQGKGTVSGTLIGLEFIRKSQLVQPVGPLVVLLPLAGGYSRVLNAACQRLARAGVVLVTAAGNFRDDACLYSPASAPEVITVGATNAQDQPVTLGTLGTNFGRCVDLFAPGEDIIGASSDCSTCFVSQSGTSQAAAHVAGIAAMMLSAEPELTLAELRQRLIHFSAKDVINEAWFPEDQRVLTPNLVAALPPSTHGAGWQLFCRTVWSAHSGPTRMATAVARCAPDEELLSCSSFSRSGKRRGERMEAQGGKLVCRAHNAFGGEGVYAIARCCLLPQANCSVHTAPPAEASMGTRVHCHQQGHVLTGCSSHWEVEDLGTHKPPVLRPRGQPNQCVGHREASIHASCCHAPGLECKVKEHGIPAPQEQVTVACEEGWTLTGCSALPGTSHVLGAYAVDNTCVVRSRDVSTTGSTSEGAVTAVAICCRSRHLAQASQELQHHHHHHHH
Test: TR-FRET competition; His-PCSK9 with EGF(A)-Fc as competitor ligand
pIC50: −log10 of the molar value. Bridge positions count the residues as written; N and C are the ends. Square brackets hold non-standard residues; d marks the D form. Primed or numbered codes have the meaning given here. Hyp′ = 3-hydroxyproline
Measurement Type: pIC50

Task item: Provide one value: measured pIC50 of Ac-SGCFI[Hyp′]WNLQRIGLLC-NH2 (disulfide 3-16 (inferred), Has two Cys (positions 3 and 16)) [Compound 242: Ac-SG-CFI(Hyp)WNLQRIGLLC-NH2]
Reply: ≤ 4.30
